System: OVCAR-8 ovarian
Assay name: NCI tumour cell line growth inhibition, 48 h
Value kind: GI50

Worked set:
INSERT INTO measurements (compound, measured_target, experimental_result) VALUES
  ('COC(=O)Nc1nc2ccc(C(=O)c3cccc(I)c3)cc2[nH]1', 'OVCAR-8 ovarian', '0.132 µM'),
  ('Nc1nc(-c2ccc3c(c2)/C(=C\c2cc(Br)c(O)c(Br)c2)C(=O)N3)cs1', 'OVCAR-8 ovarian', '> 25 µM'),
  ('CN(C(=O)C(C)(C)C)c1ccccc1I(=O)=O', 'OVCAR-8 ovarian', '> 100 µM'),
  ('N#C/C(=C\c1ccc[nH]1)c1cc(-c2ccc(Cl)cc2)nn1-c1ccccc1', 'OVCAR-8 ovarian', '11.5 µM'),
  ('c1ccc2c(N=NSc3ncnc4nc[nH]c34)c3ccccc3nc2c1', 'OVCAR-8 ovarian', '1.5 µM'),
  ('CCC(=O)NC1=C(Cl)C(=O)C(NC(=O)CC)=C(Cl)C1=O', 'OVCAR-8 ovarian', '37.4 µM'),
  ('Nc1ccc(C#Cc2ccccc2C#CCCCCO)cc1', 'OVCAR-8 ovarian', '17 µM'),
  ('Cc1ccsc1C(NC(=O)c1ccccc1)c1cc(Cl)c2cccnc2c1O (stereo not given)', 'OVCAR-8 ovarian', '0.405 µM'),
  ('O=C(Nc1ccc(Cl)c(Cl)c1)c1ccc(NC2=C(Cl)C(=O)N(Cc3ccccc3)C2=O)cc1', 'OVCAR-8 ovarian', '2.6 µM');

# ---- query compound ----
## Input # query: GI50 of entry COc1c(C(N)=O)cc(-c2ccc(Cl)cc2)cc1-c1ccc(S(N)(=O)=O)cc1
## Output 9.33 µM

Data credit: PubChem BioAssay (NCI)
